The values you see were collected from paper PMC5923120.

Procedure Details: in vitro
Measurement Parameters: monkey
Value Kind: Papp at 30 min (nm/s)
Give bare numbers, in nm/s.

Worked cases, answers included:
Cn1c(=O)c2c(ncn2C)n(C)c1=O [Caffeine, reference compound] ... 250
O=C(N/N=C/c1cc(Br)cc(Br)c1O)c1ccc(Br)cc1 ... 11

Now for another entry.
Quick check: Papp at 30 min of Cc1ccccc1C(=O)N/N=C/c1cc(Br)ccc1O ?
90

---

Procedure Details: in vitro
Measurement Parameters: mouse, microsomes
Value Kind: microsomal CLint at 2 μM (µL/min/mg)
Give bare numbers, in µL/min/mg.

O=C(N/N=C/c1cc(Br)cc(Br)c1O)c1ccc(Br)cc1 ... 15.7

Now look at this entry.
What value of microsomal CLint at 2 μM has been recorded for this entry: Cc1ccccc1C(=O)N/N=C/c1cc(Br)ccc1O
189
